# TESTED_SYSTEM: interleukin-1β converting enzyme (ICE) (Homo sapiens, UniProt P29466)
# Sequence (P29466 120-297 limits assumed): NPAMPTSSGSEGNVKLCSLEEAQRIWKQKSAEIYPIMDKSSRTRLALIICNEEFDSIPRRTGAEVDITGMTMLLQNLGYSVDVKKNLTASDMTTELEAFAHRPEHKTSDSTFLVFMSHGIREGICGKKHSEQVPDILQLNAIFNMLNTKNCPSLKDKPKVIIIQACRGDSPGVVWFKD
# Sequence (P29466 317-404 limits assumed): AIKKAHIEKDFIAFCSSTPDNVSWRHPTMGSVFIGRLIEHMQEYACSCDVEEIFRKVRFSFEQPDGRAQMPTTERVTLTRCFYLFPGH
# ASSAY_OVERVIEW: ICE activity by the procedure of Thornberry et al. (1992)
# Type: biochemical
# TEST_SETTINGS: pH 7:5 and 1 mM DDT
ASSAY_ENDPOINT: IC50 (µM)
Numeric only. Scale: µM

Entry O=C(O)Cc1coccc1=O ; IC50 = 4.54

---

# TESTED_SYSTEM: interleukin-1β converting enzyme (ICE) (Homo sapiens, UniProt P29466)
# ASSAY_OVERVIEW: ICE activity by the procedure of Thornberry et al. (1992)
# Type: biochemical
# TEST_SETTINGS: pH 6.5 and 1 mM DDT
ASSAY_ENDPOINT: IC50 (µM)
Numeric only. Scale: µM

Here O=C(O)Cc1coccc1=O [Gamma-pyrone-3-acetic acid, gamma-pyrone-3-acetic acid] was tested on interleukin-1β converting enzyme (ICE) (Homo sapiens, UniProt P29466), and its IC50 came to 1.3
